target: Muscarinic acetylcholine receptor M1 (Homo sapiens); test: human M1 muscarinic receptor agonists, primary screen, Fluo-8 calcium fluorescence, CHO-K1 cells, HTS (AID 588814); conditions: CHO-K1 hM1, Fluo-8 calcium fluorescence, agonist mode; at 3 µM; 0% DMSO, 100% acetylcholine EC100;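 note: peak over basal fluorescence ratio within a 140 s kinetic read after compound addition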
About 1,200 (0.33%) of roughly 360,000 compounds were called active.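 Rule for the calls: active = activation above the run's mean compound activation plus 3 SD (cut at about 16% in these data); inactive = the rest.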 The full list was thinned out, with actives kept by preference.
Parameter call: string, one of active, inactive

Study these solved cases before continuing.
[
  {
    "compound": "CCN(CC)c1ccc(/C=N/NC(=O)CNC(=O)c2cccs2)cc1",
    "categoryLabel": "inactive"
  },
  {
    "compound": "CC(C)CNC(=O)C1CCCN(S(=O)(=O)c2ccc(-n3cnnn3)cc2)C1 (stereo unspecified)",
    "categoryLabel": "inactive"
  },
  {
    "compound": "O=C(CCCN=C1NS(=O)(=O)c2ccccc21)OCC(=O)c1ccc(F)c(F)c1",
    "categoryLabel": "active"
  },
  {
    "compound": "CCOCc1nnc(NC(=O)CCC2CCCCC2)s1",
    "categoryLabel": "inactive"
  },
  {
    "compound": "Nc1cc(=O)n(Cc2ccccc2)c(=O)n1Cc1ccccc1",
    "categoryLabel": "inactive"
  },
  {
    "compound": "Cc1ccc(Cn2c(C)c3cnn(CC(=O)NCc4ccccn4)c(=O)c3c2C)cc1",
    "categoryLabel": "inactive"
  },
  {
    "compound": "O=C1c2ccccc2NC(c2ccccn2)N1NS(=O)(=O)c1ccccc1 (stereo unspecified)",
    "categoryLabel": "inactive"
  },
  {
    "compound": "COC(=O)c1ccc(CSc2ccc3nnc(-c4ccccc4)n3n2)o1",
    "categoryLabel": "inactive"
  }
]

stdin: Could you kindly confirm the outcome this assay logged for `O=C(N/N=C1\CCSC1)c1cc(Cl)ccc1O` ?
stdout: inactive

stdin: Test call, this compound: CC(C[N+](C)(C)C)OC(N)=O (stereo unspecified)
stdout: active

stdin: // return assay outcome for `Cc1cc(C)c(S(=O)(=O)N2CCC(C(=O)OCc3c(C)noc3C)CC2)c(C)c1`
stdout: inactive

###

target: Muscarinic acetylcholine receptor M1 (Homo sapiens) (UniProt P11229); assay: human M1 muscarinic receptor agonists, primary screen, Fluo-8 calcium fluorescence, CHO-K1 cells, HTS (AID 588814); conditions: CHO-K1 hM1, Fluo-8 calcium fluorescence, agonist mode; at 3 µM; hits give high values; 0% DMSO, 100% acetylcholine EC100;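 note: peak over basal fluorescence ratio within a 140 s kinetic read after compound addition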
Sequence (P11229 whole entry, looked up): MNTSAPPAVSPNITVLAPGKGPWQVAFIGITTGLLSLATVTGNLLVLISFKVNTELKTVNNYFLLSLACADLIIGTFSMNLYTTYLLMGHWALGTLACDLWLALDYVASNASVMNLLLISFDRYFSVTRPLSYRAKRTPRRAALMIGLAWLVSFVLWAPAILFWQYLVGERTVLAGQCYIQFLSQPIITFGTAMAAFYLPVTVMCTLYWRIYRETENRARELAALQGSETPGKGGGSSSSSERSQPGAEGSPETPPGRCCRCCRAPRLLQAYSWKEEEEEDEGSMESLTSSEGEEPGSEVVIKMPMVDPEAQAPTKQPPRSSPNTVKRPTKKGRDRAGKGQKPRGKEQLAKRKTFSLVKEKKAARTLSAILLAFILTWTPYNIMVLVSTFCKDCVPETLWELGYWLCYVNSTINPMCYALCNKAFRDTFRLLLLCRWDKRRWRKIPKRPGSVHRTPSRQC
In all, about 360,000 compounds went through this assay and about 1,200 (0.33%) were called active. This excerpt belongs to a sample that is enriched for actives.
For each entry below, report its activation value.
Numbers only, in %.

Check out these entries, answers already filled in.
[
  {
    "compound": "O=C1CCN(CCCc2ccccc2)CCN1CCO",
    "unitDescriptor": "%",
    "recordedResult": -5.68
  },
  {
    "compound": "COc1ccc(C2(C)NC(=O)N(CC(=O)c3ccc4c(c3)OCO4)C2=O)cc1 (stereo unspecified)",
    "unitDescriptor": "%",
    "recordedResult": 10.2
  },
  {
    "compound": "Cc1ccc(NC(=O)CN2C(=O)NC(C)(c3ccc(Cl)cc3)C2=O)c(Br)c1 (stereo unspecified)",
    "unitDescriptor": "%",
    "recordedResult": 17.6
  },
  {
    "compound": "Nc1c(C(=O)c2cccs2)sc2nsc(SCCN3CCCCC3)c12",
    "unitDescriptor": "%",
    "recordedResult": 40.6
  }
]

Provide the reported activation of each entry below, same order.
1. Cc1ccc(-c2nnc(C)c(N3CC(C)OC(C)C3)n2)cc1 (stereo unspecified)
2. CCOC(=O)C1CCCN(C(=O)c2cccc3ccccc23)CC1 (stereo unspecified)
3. CC1CCC2(CC1)NC(=O)N(CC(=O)c1ccc3c(c1)OCO3)C2=O (stereo unspecified)

stdout:
-3.38
-0.09
-2.81

Lab note: each compound below needs its activation filled in.
1. O=C(Nc1ccc(Cl)cc1)N1CCc2[nH]c3ccccc3c2C1
2. CC1(c2ccc(Cl)cc2)NC(=O)N(CC(=O)c2ccc3c(c2)OCO3)C1=O (stereo unspecified)
3. COCCCNC(=O)C1CC(=O)N(c2ccc(C)cc2)C1 (stereo unspecified)

stdout:
[21.6, 20.6, -2.9]

# credit: PubChem BioAssay AID588814
